Origin of measurements: paper PMC7822874

Item-by-item account of viability at 48 h, 3 µM
# Assay Details: in vitro
# Particulars: human, HepG2-A16-CD81EGFP cells, uninfected
Result Type: viability at 48 h, 3 µM (%)

> print(dat)
                                   compound  observed
1  COc1ccccc1C1c2[nH]c3ccccc3c2C[C@H]2C(=O)N(C3CCN(Cc4ccccc4)CC3)CC(=O)N12 (some centres unmarked)        85
2  CC(C)c1ccccc1Oc1c(C(F)(F)F)oc2c(CN3CCN(C)CC3)c(O)ccc2c1=O       102
3  CC(C)C(=O)N1Cc2ccccc2CC2(CCCN(CC3CCCCC3)C2)C1 (centres unmarked)       105
4         CC(C)(C)NC(=O)Cn1ccc(=N)c2ccccc21        97
5  O=c1c(=Cc2ccco2)sc2n1CN(c1cccc(Br)c1)CN=2       103

###

# Assay Details: in vitro
# Particulars: human, HepG2-A16-CD81EGFP cells, uninfected
Result Type: viability at 48 h, 1 µM

> print(dat)
                                   compound  observed
1  CC1CCCN(Cc2c(O)ccc3c(=O)c(-c4ccccc4Cl)c(C(F)(F)F)oc23)C1 (centres unmarked)      108%
2  COc1ccc(Cl)cc1[S+](=O)([O-])N1CCC2(CCCNC2)C1 (centres unmarked)      112%
3  COC(=O)c1cc2sc(Cl)cc2n1CC(=O)Nc1ccc(OC)c(OC)c1OC      101%
4  CC(C)c1ccc(CC(=O)N2CCCc3ncc(C(=O)Nc4cccnc4)cc32)cc1       99%
5  COc1ccc2nc3cc(Cl)ccc3c(Nc3cc(C(C)C)c(O)cc3C)c2c1      112%
6  Oc1ccc(-c2nnc(S)n2-c2ccc3c(c2)OCCO3)c(O)c1       98%
7  CCOc1ccc(Nc2nc(NCC3CCCO3)c3ccccc3n2)cc1 (centres unmarked)      104%
8        CCCn1cc(SCC(=O)NCc2ccco2)c2ccccc21       90%

###

# System: P. falciparum Dd2 Cytb A122D
# Assay Details: SYBR Green ABS proliferation assay, NCGC00473217 selected clone F12
# Format: cell-based, Plasmodium falciparum
# Particulars: Plasmodium falciparum, DD2, cytochrome b mutant line, fourth value triple, c12; […]; read-out: log AC50, mean (converted)
Item-by-item account of AC50
Result Type: AC50

> print(dat)
                                   compound           experimental.system  result.type  observed
1  COc1ccc(-c2nc(C(C)C)nc3c2CCN(C(=O)c2cccc(Cl)c2)CC3)cc1  P. falciparum Dd2 Cytb A122D         AC50   16.1 µM
2  CCCN1C(CC2CCCCC2)=N[S+](=O)([O-])c2cc(NC(=O)c3cccs3)ccc21  P. falciparum Dd2 Cytb A122D         AC50   1.53 µM
3  CCCN1C(CC2CCOCC2)=N[S+](=O)([O-])c2cc(NC(=O)c3cccs3)ccc21  P. falciparum Dd2 Cytb A122D         AC50   2.82 µM
4  CCCN1C(CC(C)C)=N[S+](=O)([O-])c2cc(NC(=O)c3ccc(F)c(Cl)c3)ccc21  P. falciparum Dd2 Cytb A122D         AC50   7.38 µM
5  O=c1[nH]c(N2CCOCC2)nc2c1CCN(Cc1cc(Br)ccc1F)CC2  P. falciparum Dd2 Cytb A122D         AC50   4.91 µM
6  CCCN1C(CC(C)C)=N[S+](=O)([O-])c2cc(NC(=O)c3ccc(SC)cc3)ccc21  P. falciparum Dd2 Cytb A122D         AC50   8.93 µM
7  O=C(Nc1ccc2c(c1)[S+](=O)([O-])N=C1CCCN12)c1ccc(F)cc1  P. falciparum Dd2 Cytb A122D         AC50     10 µM
8  CCCN1C(Cc2ccccc2)=N[S+](=O)([O-])c2cc(NC(=O)c3ccc(F)cc3)ccc21  P. falciparum Dd2 Cytb A122D         AC50   3.17 µM

###

Item-by-item account of AC50
# Tested on: P. falciparum Dd2 Cytb F123L
# Assay Details: SYBR Green ABS proliferation assay, NCGC00473217 selected clone G08
# Format: cell-based, Plasmodium falciparum
# Particulars: Plasmodium falciparum, DD2, […]; averaged from three independent replicates; top concentration 29 µM; read-out: Average AC50 (Log[M]), NCGC00473217 clone G08 (Cytb F123L) (converted)
# Description: As resistance selection studies implicated the parasite cytochrome bc1 complex in mediating reduced parasite susceptibility to both NCGC00473217 and NCGC00374598, we leveraged these drug-selected parasites to test for altered drug response to a panel of antimalarial compounds. The P. falciparum parasite Dd2 line was cultured in vitro using standard conditions. […] Significant differences were assessed using two-sided Student’s t-tests. All HTS assays were stopped and read at 72 h. […]
Result Type: AC50 (M)

> print(dat)
                                   compound  unit.descriptor  observed
1  CCCN1C(CC(C)C)=N[S+](=O)([O-])c2cc(NC(=O)c3cncnc3)ccc21                M  4.48e-06
2  CCCN1C(CC(C)C)=N[S+](=O)([O-])c2cc(NC(=O)c3cc4ccccc4s3)ccc21                M   7.1e-06
3  CCCN1C(CC(C)C)=N[S+](=O)([O-])c2cc(NC(=O)c3cc4ncccn4n3)ccc21                M  1.04e-05

###

Item-by-item account of AC50
# Test system: Plasmodium falciparum Dd2 asexual blood stage parasites
# Assay Details: microbe, parasite or virus in culture
# Parameters: species or system Plasmodium falciparum Dd2 in human erythrocytes; single determination (one 11-point concentration-response curve)
# Particulars: Plasmodium falciparum, DD2, Erythrocyte, 72 h; read-out: AC50

Molecule	AC50
COc1cccc(NC(=O)C2(C)CN(C)Cc3ccc(N4CCOCC4)nc32)c1 (stereo not drawn) [NCGC00414578-01]	3.85 µM
Cc1ccc(CNCc2cc3c(C(C)(C)C)nn(-c4ccccc4)c3[nH]c2=O)cc1 [MLS000067257-01]	0.266 µM
COc1ccccc1NC(=O)CSc1nc2c(oc3ccccc32)c(=O)n1-c1ccc(C)cc1 [NCGC00112704-01]	15 µM
CCOc1ccc(NC(=O)c2cc3ccccc3cc2O)cc1 [MLS000736677-01]	5.31 µM
Cc1ccc(-n2ncc(C(=O)N3CCN(c4cc(Cl)ccc4C)CC3)c2C2CCN(C(=O)OC(C)(C)C)CC2)cc1 [NCGC00126953-01]	8.41 µM
COc1ccc(NC(=O)O[C@@H]2CC[C@]3(C)C(CC[C@@H](O)[C@H]3CC(=O)NCc3ccccc3OC)[C@]2(C)CO)cc1 (stereo partly drawn) [NCGC00398535-01]	6.68 µM
OC(CNC1CCCCCC1)COc1cccc2ccccc12 (stereo not drawn) [MLS001174634-01]	1.88 µM
CC1Cc2nc(SCC(=O)Nc3ccc4c(c3)OCO4)n(-c3ccc(F)cc3)c(=O)c2S1 (stereo not drawn) [MLS000685016-01]	2.99 µM
CCc1ccc(NC(=O)CSc2nc3[nH]nc(C)c3c(=N)n2-c2ccc(C)cc2)cc1 [NCGC00140694-01]	6.68 µM
CC(C)c1nc2c(c(-c3ccc(O)cc3)n1)CCN(Cc1ccc(OC(F)(F)F)cc1)CC2 [NCGC00480325-01]	2.99 µM
COc1ccc(NC(=O)c2ccc(-c3nnc4ccc(NC(=O)C5CC5)cn34)cc2)cc1 [NCGC00429845-01]	2.66 µM
Cc1ccc(-c2nn(-c3ccccc3)c3[nH]c(=O)c(CNCc4ccccc4)cc23)cc1 [MLS000067457-01]	0.422 µM
COc1ccc(N2CCN(C(=O)CSc3nc(-c4ccc(C(C)C)cc4)no3)CC2)cc1 [NCGC00127936-01]	0.531 µM
COc1ccc(CN2CCCCCNC(=O)CC2c2ccccc2)cc1Cn1ccnc1 (stereo not drawn) [NCGC00465444-01]	9.44 µM
O=S(=O)(c1ccc(Cl)cc1)N1CCN(C(S)=NCC2CCCO2)CC1 (stereo not drawn) [MLS001124005-01]	1.88 µM
COc1ccc(C)cc1NCc1cc(=O)oc2cc(-c3ccccc3)c(O)cc12 [MLS000331048-01]	5.31 µM
Oc1cc(Nc2ccccc2)cc2cccnc12 [NCGC00183789-01]	6.68 µM
COc1ccc(CN2C[C@H]3CN(Cc4c[nH]c5ccccc45)CCN3C2=O)cc1 [NCGC00392270-01]	3.85 µM
C/C(Cl)=C/Cc1c(C)nc2c(ccc3ccccc32)c1O [MLS001211902-01]	0.841 µM
CCOC(=O)c1ccccc1NC1c2ccccc2C(=O)N1C1CCN(C(=O)OCC)CC1 (stereo not drawn) [MLS000878310-01]	13.3 µM
CCOC(=O)c1c(C)[nH]c(C)c1[S+](=O)([O-])N1CCCC(C(=O)N2CCN(c3cccc(C)c3C)CC2)C1 (stereo not drawn) [NCGC00138103-01]	1.33 µM
O=C(C[C@@H]1CCNC[C@@H]1Cc1cc(CSc2ccccc2)on1)N1CCN(c2ccccc2)CC1 [NCGC00400854-01]	8.41 µM
Cc1ccccc1Oc1nc(-c2ccccn2)nc2ccccc12 [MLS000769500-01]	6.68 µM
Oc1cc(NCc2ccc(F)cc2)cc2cccnc12 [NCGC00183798-01]	4.73 µM
CCOC(=O)c1c(NC(=O)C[n+]2ccc(N(C)C)cc2)sc(C)c1C [MLS000710762-01]	1.33 µM
CCN(CC)CCN1C(=O)c2ccccc2NC1c1ccc(N(C)C)cc1 (stereo not drawn) [MLS000554078-01]	4.22 µM
Cn1c(=O)[nH]c2nnc(-c3ccc(Cl)c(Cl)c3)nc2c1=O [MLS000768805-01]	8.41 µM
NC(=O)c1cccc2nc([C@H]3CCN(Cc4ccccn4)C3)[nH]c12 [NCGC00396190-01]	1.53 µM
Cc1ccc2sc(N3CCN(C(=O)c4ccc([N+](=O)[O-])o4)CC3)nc2c1C [MLS001234068-01]	5.31 µM
CCN(CCCNC(=O)c1nn(-c2ccc(OC)c(Cl)c2)c(=O)c2c1c1ccccc1n2C)c1cccc(C)c1 [NCGC00108898-01]	15 µM
CCN(CC)CC(O)COc1ccccc1C(=O)CCc1ccccc1 (stereo not drawn) [MLS000107538-01]	1.5 µM
CC(Oc1ccccc1)C(=O)Nc1nc(-c2ccccn2)cs1 (stereo not drawn) [MLS002158763-01]	8.41 µM
COc1ccc(CN2C(=O)C(C)N(C(=O)c3c(F)cccc3F)c3ccccc32)cc1 (stereo not drawn) [MLS001166304-01]	7.5 µM
